Test system: HS 578T breast
TEST DESCRIPTION: NCI-60 one-dose screen, 48 h (100 = growth as untreated, 0 = no growth, -100 = all killed)
ASSAY CONTEXT: 10 µM unless noted
The panel holds about 83,000 compounds, 20% with a hit somewhere; the sample as a whole holds those more often.
ASSAY READOUT: growth (%)
Respond numerically; units are % and should not be typed.

// returns reported growth for input `COC1=CC(=O)C[C@@H](C)[C@]12Oc1c(Cl)c(OC)cc(OC)c1C2=O`
91.5

// next item, growth requested
// returns reported growth for input `O=S(=O)(O)c1ccc(N/N=C/c2ccccc2Cl)cc1`
111

###

Each entry below lists one item and its recorded growth value.
Tested on: OVCAR-5 ovarian
TEST DESCRIPTION: NCI-60 one-dose screen, 48 h (100 = growth as untreated, 0 = no growth, -100 = all killed)
ASSAY CONTEXT: 10 µM unless noted
The panel holds about 83,000 compounds, 20% with a hit somewhere; the sample as a whole holds those more often. The source made the active and inactive calls. How the source made its calls: active means growth percent below 10; inactive means the rest.

Example compounds with recorded growth:
// returns reported growth for input `COc1ccc2c(c1)O/C(=C\c1cccc(OCC(=O)Nc3nc4ccccc4s3)c1)C2=O`
95.7% (inactive)

// returns reported growth for input `CCCCn1c(=O)c2c(nc(NCCc3ccc(O)c(O)c3)n2CCC)n(CCCC)c1=O`
97.9% (inactive)

// returns reported growth for input `COc1ccc(NC(=O)CSc2nnc(-c3cc(-c4ccccc4)nc4ccccc34)n2-c2ccccc2)cc1`
99.2% (inactive)

// next item, growth requested
// returns reported growth for input `COC(=O)CCC1=C(C)C2=NC1=CC1=NC(=CC3=NC(=Cc4[nH]c(/c(=C(/C)O)c4C)=C2)C(C(C)=O)=C3C)C(C)=C1CCC(=O)OC`
111% (inactive)

###

System: CCRF-CEM leukemia
TEST DESCRIPTION: NCI-60 one-dose screen, 48 h (100 = growth as untreated, 0 = no growth, -100 = all killed)
ASSAY CONTEXT: 10 µM unless noted
Compounds without any hit were thinned out: in the full panel of roughly 83,000, 20% have a hit.
ASSAY READOUT: growth (%)
Respond numerically; units are % and should not be typed.

Example compounds with recorded growth:
// returns reported growth for input `Cc1cc(NCc2cc(Nc3ccnc4cc(Cl)ccc34)ccc2F)nc(N2CCSCC2)n1`
-10.4

// returns reported growth for input `O=c1[nH][n+](-c2ccc(Cl)cc2)no1`
55.3

// returns reported growth for input `Cc1cc(NCc2cc(Nc3ccnc4cc(Cl)ccc34)ccc2F)nc(Cl)n1`
42.8

// returns reported growth for input `CNC(=O)c1cc(Oc2cccc3nc(Nc4ccc(F)c(Cl)c4)ccc23)ccn1`
60.3

// returns reported growth for input CCCCC1CCCCN1C(=O)OCC (stereo unspecified)
108

// next item, growth requested
// returns reported growth for input `COc1nc(N(C)O)nc(N(C)O)n1`
14.4

###

Test system: UACC-62 melanoma
TEST DESCRIPTION: NCI-60 one-dose screen, 48 h (100 = growth as untreated, 0 = no growth, -100 = all killed)
ASSAY CONTEXT: 10 µM unless noted
This is part of a sample that, as a whole, favours compounds with a hit. Of some 83,000 tested, about 20% had one in any assay. Activity calls are given as the source filed them. The calls were made as follows: active = growth percent below 10; inactive = the rest.
ASSAY READOUT: growth

Example compounds with recorded growth:
// returns reported growth for input `O=C(CCCCCCN1CC(=O)N2[C@@H](c3ccccc3Cl)c3[nH]c4ccccc4c3C[C@H]2C1=O)NO`
34% (inactive)

// returns reported growth for input `C=C(C)[C@@H]1CC=C2c3sc(-c4ccc(C)cc4)nc3C[C@@H](C)[C@]2(C)C1`
93.2% (inactive)

// returns reported growth for input `C=CCn1c(C)nc2cc(Nc3nc(Cl)nc4ccccc34)ccc21`
93.1% (inactive)

// returns reported growth for input `COc1cccc(-c2nc3sccn3c2-c2ccnc(NCCNS(=O)(=O)c3cccc(Cl)c3)c2)c1`
12.1% (inactive)

// returns reported growth for input `COc1ccc2[nH]c(O)c(C(=Nc3ccc(N(C)C(=O)CN4CCN(C)CC4)cc3)c3ccccc3)c2c1`
75.3% (inactive)

// returns reported growth for input `COc1ccc(-c2nc(SC(C)C)nc(NNC(N)=S)c2C#N)cc1`
22.2% (inactive)

// returns reported growth for input `COc1cc(/C=C2\C(=O)ON=C2C)cc(OC)c1OC`
97% (inactive)

// returns reported growth for input `Cc1cc(NCc2cc(Nc3ccnc4cc(Cl)ccc34)ccc2F)nc(Cl)n1`
45.2% (inactive)

// returns reported growth for input `COC(=O)c1c2c(c[n+]([O-])c1C)C(=O)C=CC2=O`
0.925% (active)

New cases:
// returns reported growth for input CC(CN1CCCCC1)C(=O)c1ccccc1 (stereo not given)
104% (inactive)

###

Test system: HS 578T breast
TEST DESCRIPTION: NCI-60 one-dose screen, 48 h (100 = growth as untreated, 0 = no growth, -100 = all killed)
ASSAY CONTEXT: 10 µM unless noted
The panel holds about 83,000 compounds, 20% with a hit somewhere; the sample as a whole holds those more often.
Mark rule met only for growth values smaller than 70%; exact matches and larger values are rule not met.

Example cases with answers are listed next.
hey, is growth for `O=C(/C=C/c1c(Cl)nc2sccn12)c1nccs1` lower than 70% or not?
rule met

hey, is growth for `O=C(c1ccccc1)c1c(/C=C/c2ccc(Cl)cc2)nc2ccccc2c1/C=C/c1cccs1` lower than 70% or not?
rule not met

hey, is growth for `CCOC(=O)c1c(-c2ccc(Cl)cc2)c(C#N)c(=O)n(-c2ccccc2CC)c1N` lower than 70% or not?
rule not met

hey, is growth for CS(=O)c1cccc(-c2ccc3nc(N)n(-c4ccc(C(F)(F)F)cc4)c(=O)c3c2)c1 (stereo unspecified) lower than 70% or not?
rule not met

hey, is growth for `O=C1c2cccc(NCCN=Cc3cc([N+](=O)[O-])ccc3O)c2C(=O)c2c(NCCN=Cc3cc([N+](=O)[O-])ccc3O)cccc21` lower than 70% or not?
rule met

New cases:
hey, is growth for `CCOc1c(C#N)nnc2c(C#N)c(NC(=O)c3ccccc3)nn12` lower than 70% or not?
rule not met

hey, is growth for `N=C(N)c1ccc(-c2ccc(-c3cncc4ccccc34)s2)s1` lower than 70% or not?
rule met

hey, is growth for `COc1cccc(-c2nn(-c3ccccc3)cc2-c2ccnc(NCCNC(=O)Nc3ccc(Cl)c(Cl)c3)c2)c1` lower than 70% or not?
rule met

hey, is growth for `Cn1ccc2c(c1=O)C(=O)c1nccc3c1c-2nc1ccccc13` lower than 70% or not?
rule not met

hey, is growth for `CC(=O)c1nc(Nc2ccc(C)cc2)sc1C` lower than 70% or not?
rule not met

hey, is growth for `COc1cc(-c2nc(N3CCN(C)CC3)c3ccccc3n2)cc(OC)c1OC` lower than 70% or not?
rule met

###

Tested on: CCRF-CEM leukemia
TEST DESCRIPTION: NCI-60 one-dose screen, 48 h
ASSAY CONTEXT: 10 µM unless noted
This is part of a sample that, as a whole, favours compounds with a hit. Of some 83,000 tested, about 20% had one in any assay. The source made the active and inactive calls. The calls were made as follows: active = growth percent below 10; inactive = the rest.
Respond with a class label; see active, inactive

Example cases with answers are listed next.
Write down the call the test reported for this molecule. Item: `O=C(Nc1ccc(Cl)cc1)Nc1ccc(Cl)c(C(F)(F)F)c1`
active

Write down the call the test reported for this molecule. Item: CCN1C(=O)N(CC)C2Nn3c(s/c(=C4\C(=O)N(C)c5ccccc54)c3=O)=NC21 (configuration not stated)
inactive

New cases:
Write down the call the test reported for this molecule. Item: COc1cccc2c1C(=O)c1c(O)c3c(c(O)c1C2=O)CC(O)(/C(C)=N/NC(=O)CCCCC(=O)N/N=C(\C)C1(O)Cc2c(O)c4c(c(O)c2C(OC2CC(N)C(O)C(C)O2)C1)C(=O)c1c(OC)cccc1C4=O)CC3OC1CC(N)C(O)C(C)O1 (configuration not stated)
active

Write down the call the test reported for this molecule. Item: `O=c1[nH]ccc2nc(N3CCC(O)CC3)nc(Nc3ccc(N4CCOCC4)cc3)c12`
inactive

###

System: KM12 colon
TEST DESCRIPTION: NCI-60 one-dose screen, 48 h (100 = growth as untreated, 0 = no growth, -100 = all killed)
ASSAY CONTEXT: 10 µM unless noted
This is part of a sample that, as a whole, favours compounds with a hit. Of some 83,000 tested, about 20% had one in any assay.
Each entry below lists one item and its recorded growth value.
Respond numerically; units are % and should not be typed.

Example compounds with recorded growth:
// returns reported growth for input COCCc1ccc(OCC(O)CNC(C)C)cc1 (configuration not stated)
105

// returns reported growth for input `CCCCn1c(=O)c2c(nc3n2CCCN3CCc2ccc(OCC(=O)NCCN(CC)CC)cc2)n(CCCC)c1=O`
77.5

// returns reported growth for input `NC(=S)Nc1cccc(O)c1`
106

// returns reported growth for input `C=CCOC1=CC(=O)c2ccccc2C1=O`
87.8

// returns reported growth for input `C=C(C)[C@@H]1CC[C@]2(C)[C@H](CC=C3[C@@H]4CC(C)(C)CC[C@]4(C(N)=O)CC[C@]32C)[C@@]1(C)CCC#N`
20.7

New cases:
// returns reported growth for input `CCN(CC)c1ccc(C(=O)c2ccc(N(CC)CC)cc2)cc1`
25.1

// returns reported growth for input CC1CC2Oc3ccc(Cl)cc3C(=O)N2O1 (configuration not stated)
107

// returns reported growth for input `CCCCCCCC/C=C\CCCCCCCCOc1ccccc1CC(=O)NCC[N+](C)(C)C`
36.4

// returns reported growth for input `CN(C)CCNc1nc2ccccc2c2c1c1c(n2Cc2ccccc2)-c2ccccc2C1=O`
-74.6

// returns reported growth for input CCOP(=O)(OCC)C1CP(=O)(c2ccccc2)CC(C)=C1Cl (configuration not stated)
109

// returns reported growth for input `O=C(O)CN1C(=O)CCC1=O`
104
